Tested on: U251 CNS
METHOD NOTES: NCI tumour cell line growth inhibition, 48 h
Recorded TGI by entry

Cc1ccc(Nc2c3c(c(C#N)c4nc5ccccc5n24)CCCC3)cc1 :: > 100 µM
Clc1ccc(-c2cc(-c3ccccc3)nc(N3CCN(CCCNc4ccnc5cc(Cl)ccc45)CC3)n2)cc1 :: 2.63 µM
Cc1cc2c(cc1Cl)SC(N(c1ccccc1Cl)S(=O)(=O)c1ccc(Br)s1)=NS2(=O)=O :: 46.3 µM
COc1cc(/C=C/C(=O)c2cccc3ccccc23)cc(OC)c1OC :: 18.8 µM

Proceeding to the next compound to report its TGI.
[ask] Any idea what its TGI is? The compound is COC(CNC(=O)CNC(=O)c1ccc(C(F)(F)F)cc1)OC
[reply] > 100 µM
